compounds and their reported TGI
# Test system: MALME-3M melanoma
# assay: NCI tumour cell line growth inhibition, 48 h

# compound, inequality operator, TGI [µM]
rows = [
    ("Cc1ccc(S(=O)(=O)Cc2nc(-c3ccc(C(=O)NCc4cccnc4)cc3)oc2C)cc1", ">", 100),
    ("CC(=O)[O-].O=C([CH-]C(=O)c1ccccc1)c1ccccc1.O=C([CH-]C(=O)c1ccccc1)c1ccccc1.[Y+3]", "=", 39.5),
    ("O=C(O)C1(Cc2cccc(Nc3nccs3)n2)CCC(Oc2cccc(Cl)c2F)CC1 (centres undefined)", "=", 54.3),
    ("C=C(C)[C@@H]1CC[C@]2(COC3CCCCO3)CC[C@]3(C)[C@H](CC[C@@H]4[C@@]5(C)C=C(C=O)C(=O)C(C)(C)[C@@H]5CC[C@]43C)[C@@H]12 (some centres undefined)", "=", 3.45),
]

====

# System: HS 578T breast
# assay: NCI tumour cell line growth inhibition, 48 h
endpoint name: TGI

# compound, target under test, observed result
rows = [
    ("COc1cc2c(cc1OCc1ccccc1)NC(=S)[C@@H]1CCCN1C2=S", "HS 578T breast", "> 100 µM"),
    ("O=C(Nc1ccccc1F)c1cc2ccc(O)cc2oc1=Nc1cccc(C(F)(F)F)c1", "HS 578T breast", "7.75 µM"),
    ("NC(CCOCCP(=O)(O)CCOCCC(N)C(=O)O)C(=O)O (stereo unspecified)", "HS 578T breast", "> 100 µM"),
    ("Cc1cc(C)nc(SC2=C(Nc3cccc(Cl)c3C)C(=O)N(Cc3ccccc3)C2=O)n1", "HS 578T breast", "> 160 µM"),
    ("CS(=O)(=O)CCNCc1ccc(-c2ccc3ncnc(Nc4ccc(OCc5ccccc5)c(Cl)c4)c3c2)o1", "HS 578T breast", "12.7 µM"),
    ("CCCSC1=NC2C(N(CC)C(=O)N2CC)N1/N=C/C=C/c1ccccc1[N+](=O)[O-] (stereo unspecified)", "HS 578T breast", "> 100 µM"),
    ("O=[N+]([O-])c1ccc(Sc2c3ccccc3nc3ccccc23)nc1", "HS 578T breast", "60.7 µM"),
    ("COc1cc2cc(C(=O)N3CC(CCl)c4ccccc43)[nH]c2c(OC)c1OC (stereo unspecified)", "HS 578T breast", "> 100 µM"),
    ("COc1ccc(-c2cc(-c3cc(OC)c(OC)c(OC)c3)c(C#N)c(N3CCOCC3)n2)cc1O", "HS 578T breast", "> 28.3 µM"),
    ("OC1CN2Cc3cc4c(cc3[C@]13C=C[C@@H](O)CC23)OCO4 (stereo partly specified)", "HS 578T breast", "> 100 µM"),
    ("C/C=C/C(=O)N1C(=O)OC[C@@H]1c1ccccc1", "HS 578T breast", "76.2 µM"),
    ("Nc1c(C(=O)Nc2ccccc2F)sc2nc3c(cc12)C(=O)CCC3", "HS 578T breast", "> 25.5 µM"),
    ("COc1ccc(/C=C2\\N=C(NN)N=C2Cl)cc1", "HS 578T breast", "> 100 µM"),
    ("CC#CCCN(CC#N)Cc1ccccc1", "HS 578T breast", "> 100 µM"),
    ("CCOC(=O)c1cnc(-n2[nH]c3c(c2=O)CCCC3)[nH]c1=O", "HS 578T breast", "> 100 µM"),
    ("CC(=O)OC1CC2C(C)(C)C(=O)C=CC2(C)C2CCC3(C)C(c4ccoc4)OC(=O)C4OC43C12C (stereo unspecified)", "HS 578T breast", "> 100 µM"),
    ("CCOC(=O)/C=C1\\c2ccccc2C(=O)N1CC(=O)OCC", "HS 578T breast", "> 100 µM"),
    ("C=CCOC(=O)[C@@H]1C[C@@H](OC(C)(C)C)CN1C(=O)[C@@H]1[C@H]2OC(C)(C)O[C@H]2CN1C(=O)OCC1c2ccccc2-c2ccccc21", "HS 578T breast", "42.5 µM"),
    ("O=C1/C(=C/c2ccccc2)CN(C(=O)OCc2ccccc2)C/C1=C\\c1ccccc1", "HS 578T breast", "10.1 µM"),
    ("Cc1c2c(n(CCN(C)C)c1C)NN=C(C#N)S2(=O)=O", "HS 578T breast", "> 100 µM"),
    ("O=C(O)c1oc(C(=O)O)c(C(=O)O)c1C(=O)O", "HS 578T breast", "> 100 µM"),
]
